Target: M1 muscarinic receptor (Homo sapiens)
Construct: expressed in transfected cells; host or cells: CHO cells (M1-CHO, under zeocin and G418 selection)
Sequence (P11229 1-460): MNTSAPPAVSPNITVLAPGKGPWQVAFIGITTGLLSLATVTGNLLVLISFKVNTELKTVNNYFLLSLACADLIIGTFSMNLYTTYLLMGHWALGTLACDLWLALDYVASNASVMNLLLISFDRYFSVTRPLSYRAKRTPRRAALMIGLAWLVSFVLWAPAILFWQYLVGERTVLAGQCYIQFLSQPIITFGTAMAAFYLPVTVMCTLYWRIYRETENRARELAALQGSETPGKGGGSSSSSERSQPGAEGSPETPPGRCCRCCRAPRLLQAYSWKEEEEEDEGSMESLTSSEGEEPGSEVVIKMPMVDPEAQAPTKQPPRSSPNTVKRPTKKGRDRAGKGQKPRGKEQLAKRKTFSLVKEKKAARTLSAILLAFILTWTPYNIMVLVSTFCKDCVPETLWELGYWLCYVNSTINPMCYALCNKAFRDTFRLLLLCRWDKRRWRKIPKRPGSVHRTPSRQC
Assay: Functional mobilization of intracellular calcium (FLIPR, Fluo-3), M1-CHO cells
Format: cell-based
Details: compound nos. 1-454; 100% efficacy is the maximum response obtained with the Carbachol control; read-out: M1 Efficacy
EXPERIMENTAL_ENDPOINT: Emax

A selection of reference data follows.
[
  {
    "COMPOUND": "CC(=O)N1CC2(CCN(C3CCCCC3)CC2)c2cc(F)ccc21 [compound 387]",
    "Emax": "65 to 85%"
  },
  {
    "COMPOUND": "CCOC(=O)N1CCC(N2CCC3(CC2)CN(CCC(=O)CC)c2ccc(F)cc23)CC1 [compound 229]",
    "Emax": "< 65%"
  },
  {
    "COMPOUND": "O=C(OCC(F)(F)F)N1C2CCC1CC(N1CCC3(CC1)COc1ccc(F)cc13)C2 (centres unmarked) [compound 124]",
    "Emax": "< 65%"
  },
  {
    "COMPOUND": "CN(C)C(=O)N1CC2(CCN(C3CCN(c4ccccc4F)CC3)CC2)c2cc(F)ccc21 [compound 437]",
    "Emax": "65 to 85%"
  },
  {
    "COMPOUND": "CC(=O)N1CC2(CCN(C3CCN(C(=O)OC(C)C)CC3)CC2)c2cc(C)ccc21 [compound 380]",
    "Emax": "65 to 85%"
  },
  {
    "COMPOUND": "CCCOC(=O)N1CCCC(N2CCC3(CC2)CN(C(C)=O)c2ccc(F)cc23)CC1 (centres unmarked) [compound 266]",
    "Emax": "< 65%"
  }
]

Identify Emax associated with the compound CCC(=O)CCN1CC2(CCN(C[C@@H]3C[C@H]4C=C[C@H]3C4)CC2)c2cc(F)ccc21 [compound 12]
< 65%

Given the compound O=C1CC2(CCN(C3CCCCCC3)CC2)c2ccccc2N1 [compound 242] , write its reported Emax.
65 to 85%
